target: T1, cynomolgus monkey CD8A on primary cynomolgus monkey CD8+ T cells (cynomolgus monkey, UniProt P01732 23-235 (human entry)); assay: flow cytometry, cyno CD8+ T cells, 0.2 uM FN3
T1 construct: also called Cyno CD8alpha
T1 sequence (P01732 other isoform, or with tags, fused parts or gaps limits assumed): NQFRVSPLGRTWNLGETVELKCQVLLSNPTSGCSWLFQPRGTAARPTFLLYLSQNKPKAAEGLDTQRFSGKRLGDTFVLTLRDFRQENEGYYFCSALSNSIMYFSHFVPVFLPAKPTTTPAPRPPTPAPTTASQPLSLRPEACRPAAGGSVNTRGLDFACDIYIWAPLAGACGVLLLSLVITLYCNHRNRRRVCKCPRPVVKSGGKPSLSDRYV
recordedEndpoint: Cyno T-cell Binding 0.2 uM (MFI)

| binder | recordedEndpoint | measureUnit | readoutValue |
| --- | --- | --- | --- |
| P283AR9P1362_G3 (designed binder, FN3 domain) LPAPKNLVVSRVTEDSARLSWVKRATSFDSFLIQYQESEKVGEAIVLTVPGSERSYDLTGLKPGTEYTVSIYGVDVKWEGNRPVASNPLSAIFTT | Cyno T-cell Binding 0.2 uM (MFI) | MFI | 9200 |

[a] P282CR9P1358_C5 (designed binder, FN3 domain) LPAPKNLVVSRVTEDSARLSWTAPDAAFDSFLIAYPEWPDSGEAIVLTVPGSERSYDLTGLKPGTEYAVFIWGVKGGPLSHPLSAIFTT
[b] P282ER9P1360_H3 (designed binder, FN3 domain) LPAPKNLVVSRVTEDSARLSWTAPDAAFDSFSIAYVEAELVGEAIQLVVPGSERSYDLTGLKPGTEYWVVILGVKGGNPSNPLGASFTT
[c] P282ER9P1360_G7 (designed binder, FN3 domain) LPAPKNLVVSRVTEDSARLSWTAPDAAFDSFGILYYEPVDSGEAITLPVPGSERSYDLTGLKPGTEYWVVITGVKGGAPSTPLGAILTT
**Q:** // ranking: key=Cyno T-cell Binding 0.2 uM (MFI), reverse=True Answer by writing out the labels in the requested order.
**A:** c, b, a
